Known interaction score of a selection of binders
Biological target: T1, P2-AA-12HAA-T
T1 chain: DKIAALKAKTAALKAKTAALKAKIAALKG
Assay: two-hybrid library CCmax;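 further: natural log of median RNA to DNA barcode read ratio; higher means stronger binding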
Conditions: mean of both orientations
Provide a numeric answer; units are not to be included.

Past entries and their recorded results:
Consider the binder DEIAALEAEYAALEAEYAALEAEIAALEG [P1-AA-12HAA-Y] and give its measured interaction score.
1.76

Also need DEIAALEAESAALEAESAALEAEIAALEG [P1-AA-12HAA-S] , thanks.
0.962

---
Consider the binder DEIAALEAEIAALEAEIAALEAEIAALEG [P1-AA-12HAA-I] and give its measured interaction score.
1.75

Also need DEIAALEAEEAALEAEEAALEAEIAALEG [P1-AA-12HAA-E] , thanks.
0.375

Also need DEIAALEAEHAALEAEHAALEAEIAALEG [P1-AA-12HAA-H] , thanks.
1.16

Also need DEIAALEAEKAALEAEKAALEAEIAALEG [P1-AA-12HAA-K] , thanks.
0.253
